Exercise: for every item that follows, state its recorded Kd.
- experimentalTarget: T1, murine pro-myostatin (mouse, UniProt O08689 25-376, biotinylated (in the SPR assay))
- T1 construct: also called proGDF8 (mouse); mouse pro-myostatin
- protocol: SPR Biacore 8K, biotin-antigen captured
One number for each entry, in nM.

Take a look at these entries with their results.
Ab129 (antibody, human IgG4 S228P, kappa, V domains shown) VH: QVQLVQSGAEVKKPGASVKVSCKVSGFNYPRSAIHWVRQAPGKGLEWMGGINPSGEATIYAQKFQGRVTMTEDTSTDTAYMELSSLKSEDTAVYYCARDSSPQWLVTAGVYFYGMDVWGQGTTVTVSS VL: DIQMTQSPSSVSASVGDRVTITCRASQSISNWLAWYQQKPGKAPKLLIYHASTLQSGVPSRFSGSGSGTDFTLTISSLQPEDFANYYCQQYSSTPWTFGGGTKVEIKR | 4.24
Ab125 (antibody, human IgG4 S228P, kappa, V domains shown) VH: EVQLVQSGAEVKKPGESLKISCKGSGNRISDYWMNWVRQVPGKGLEWMGNIYPGYSDATYNRKFKGQVTISADKSISTAYLQWSSLKASDTAIYYCARGRDGYNYFAAFDIWGQGTMVTVSS VL: EIVLTQSPATLSLSPGERATLSCRASQSVASSYLAWYQQKPGQAPRLLIYDTSSRAAGIPARFSGSGSGTDFTLTISSLEPEDFAVYYCHQYGSSLTTFGGGTKVEIKR | 0.125

The reported Kd of the binder Ab105 (antibody, human IgG4 S228P, kappa, V domains shown) VH: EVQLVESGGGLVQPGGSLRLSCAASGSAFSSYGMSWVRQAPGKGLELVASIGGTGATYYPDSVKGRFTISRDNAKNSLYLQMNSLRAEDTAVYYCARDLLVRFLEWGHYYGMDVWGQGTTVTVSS VL: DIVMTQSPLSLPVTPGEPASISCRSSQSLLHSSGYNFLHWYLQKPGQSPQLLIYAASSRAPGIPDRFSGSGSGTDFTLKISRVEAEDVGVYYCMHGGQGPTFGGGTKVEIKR was 0.046

All values here come from patent US20260209325A1.
